Source of measurements: patent US8933039B2

System: CD1 mice
protocol-summary: Intestinotrophic activity assessment: small bowel weight in mice
Assay type: in vivo
condition-parameters: mice, as Example 4; relative to native rat GLP-2(1-33)
# note: exactly 90% is not below, so it is label 0; use label 1 for % Activity (small bowel inducing activity relative to native rat GLP-2(1-33) = 100%) strictly under it

Solved cases below.
H-HADGSFSDEMNTILDNLAARDFINWLIQTKITE-OH [[Glu33]hGLP-2(1-33)] ... label 0
H-HADGSFSDELNTILDNLATRDFINWLIQTKITD-OH [[Leu10]ratGLP-2(1-33)] ... label 1
H-HADGSFSDEMNTILDNLATRDFINWLIQTK-OH [ratGLP-2(1-30)] ... label 1

Exercise: Regarding H-HGDGSFSDEMNTILDNLAARDFANWLIQTKITD-OH [[Gly2,Ala23]hGLP-2(1-33)] , kindly confirm whether its % Activity (small bowel inducing activity relative to native rat GLP-2(1-33) = 100%) is beneath 90%.
Key: label 1

Exercise: Confirm or reject: % Activity (small bowel inducing activity relative to native rat GLP-2(1-33) = 100%) of H-HSDGSFSDEMNTILDNLAARDFINWLIQTKITD-OH [[Ser2]hGLP-2(1-33)] lies strictly below 90%
Key: label 0

* * *

System: CD1 mice
protocol-summary: Intestinotrophic activity assessment: small bowel weight in mice
Assay type: in vivo
condition-parameters: CD1 mice, 2.5 μg peptide s.c. b.i.d. in PBS, sacrificed 10 or 14 days, relative to vehicle only
% Increase in small bowel weight of 40% or higher: YES. Under 40%: NO.

H-HGDGSFSDEMNTILDNLAARDFINWLAQTKITD-OH [[Gly2,Ala27]hGLP-2(1-33)] ... NO

Exercise: Would you say H-HGDGSFADEMNTILDNLAARDFINWLIQTKITD-OH [[Gly2,Ala7]hGLP-2(1-33)] shows % Increase in small bowel weight at minimum 40%?
Key: NO

Exercise: Has H-HGDGSFSDEMNTILDALAARDFINWLIQTKITD-OH [[Gly2,Ala16]hGLP-2(1-33)] a recorded % Increase in small bowel weight greater than or equal to 40%?
Key: NO

Exercise: Reported % Increase in small bowel weight at or above 40%? H-HGDGSFSDEMNTILDNLATRDFINWLIQTKITD-OH [[Gly2]ratGLP-2(1-33)]
Key: YES

Exercise: Could you verify whether the entry H-HGDGAFSDEMNTILDNLAARDFINWLIQTKITD-OH [[Gly2,Ala5]hGLP-2(1-33)] shows % Increase in small bowel weight of no less than 40%?
Key: NO

Exercise: Is reported % Increase in small bowel weight greater than or equal to 40% here: H-HAEGSFSDEMNTILDNLATRDFINWLIQTKITD-OH [[Glu3]ratGLP-2(1-33)]
Key: NO

Exercise: Is the recorded value of % Increase in small bowel weight equal to or greater than 40% for this substance? H-HGDGSFSDEMNTILDNLAARDFIAWLIQTKITD-OH [[Gly2,Ala24]hGLP-2(1-33)]
Key: YES

Exercise: Could you tell me if the measured % Increase in small bowel weight of H-HGDGSASDEMNTILDNLAARDFINWLIQTKITD-OH [[Gly2,Ala6]hGLP-2(1-33)] reaches 40% or more?
Key: NO

* * *

tgt: DPP-IV (Homo sapiens, UniProt P27487)
Sequence (P27487 whole entry): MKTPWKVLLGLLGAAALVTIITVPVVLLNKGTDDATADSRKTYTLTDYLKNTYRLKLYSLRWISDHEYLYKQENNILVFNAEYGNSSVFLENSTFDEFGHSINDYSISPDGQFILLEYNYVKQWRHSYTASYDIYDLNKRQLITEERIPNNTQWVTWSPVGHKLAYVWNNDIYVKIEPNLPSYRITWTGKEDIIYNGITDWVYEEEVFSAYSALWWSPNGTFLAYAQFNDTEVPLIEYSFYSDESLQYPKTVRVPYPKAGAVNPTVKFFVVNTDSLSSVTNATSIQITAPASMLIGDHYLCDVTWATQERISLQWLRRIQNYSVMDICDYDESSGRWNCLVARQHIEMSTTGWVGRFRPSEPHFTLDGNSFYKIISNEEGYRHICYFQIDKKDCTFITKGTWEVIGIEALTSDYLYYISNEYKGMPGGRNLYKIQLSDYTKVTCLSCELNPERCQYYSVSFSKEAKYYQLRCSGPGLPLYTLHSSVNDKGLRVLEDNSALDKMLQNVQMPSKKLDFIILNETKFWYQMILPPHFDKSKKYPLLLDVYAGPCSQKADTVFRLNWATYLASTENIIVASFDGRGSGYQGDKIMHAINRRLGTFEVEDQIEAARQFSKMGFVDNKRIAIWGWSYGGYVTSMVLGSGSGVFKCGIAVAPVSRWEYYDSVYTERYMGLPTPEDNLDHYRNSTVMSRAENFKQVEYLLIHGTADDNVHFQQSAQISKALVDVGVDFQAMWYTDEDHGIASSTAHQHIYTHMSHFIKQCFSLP
protocol-summary: Assay for resistance to dipeptidyl peptidase IV (RP-HPLC of cleavage product)
condition-parameters: human, isolated human placental DPP-IV (dipeptidyl peptidase IV), pH 7.4, % Cleaved by DPP-IV, as Example 3: human placental DPP-IV, 37° C., PBS pH 7.4
value-kind: metabolised at 24 h, 0.19 mg/ml

Exercise: Note down metabolised at 24 h, 0.19 mg/ml recorded for Ac-HADGSFSDEMNTILDNLATRDFINWLIQTKITD-OH [Ac-ratGLP-2(1-33)]
Key: 0%

Exercise: Give metabolised at 24 h, 0.19 mg/ml for H-RHADGSFSDEMNTILDNLATRDFINWLIQTKITD-OH [[Arg-l]ratGLP-2(-1-33)]
Key: 0%

Exercise: // fetch metabolised at 24 h, 0.19 mg/ml given entry H-HGDGSFSDEMNTILDNLAARDFIAWLIQTKITD-OH [[Gly2,Ala24]hGLP-2(1-33)]
Key: 0%

Exercise: Read off the recorded metabolised at 24 h, 0.19 mg/ml for H-HADGSFSDEMNTILDNLAARDFINWLIQTKITE-OH [[Glu33]hGLP-2(1-33)]
Key: 55%

Exercise: Identify measured metabolised at 24 h, 0.19 mg/ml corresponding to H-YADGSFSDEMNTILDNLATRDFINWLIQTKITD-OH [[Tyr1]ratGLP-2(1-33)]
Key: 100%

Exercise: Return reported metabolised at 24 h, 0.19 mg/ml. Input substance: H-HADGSFSDEMNTILDNLATRDFINWLIQTKITD-OH [ratGLP-2(1-33), reference compound]
Key: 58%

Exercise: Specify measured metabolised at 24 h, 0.19 mg/ml for H-HADGSFSDEMNTILDNLAARDFINWLIQTRITD-OH [[Arg30]hGLP-2(1-33)] .
Key: 59%

Exercise: Let me know recorded metabolised at 24 h, 0.19 mg/ml for H-HGDGAFSDEMNTILDNLAARDFINWLIQTKITD-OH [[Gly2,Ala5]hGLP-2(1-33)] , thanks.
Key: 0%

Exercise: Return metabolised at 24 h, 0.19 mg/ml (reported value) for this substance: H-HPDGSFSDEMNTILDNLAARDFINWLIQTKITD-OH [[Pro2]hGLP-2(1-33)]
Key: 16%

Exercise: Name the recorded metabolised at 24 h, 0.19 mg/ml of the item H-HEDGSFSDEMNTILDNLAARDFINWLIQTKITD-OH [[Glu2]hGLP-2(1-33)] in your answer.
Key: 0%

Exercise: Kindly indicate its recorded metabolised at 24 h, 0.19 mg/ml. Item: H-YGDGSFSDEMNTILDNLAARDFINWLIQTKITD-OH [[Tyr1, Gly2]hGLP-2(1-33)]
Key: 0%

Exercise: Tell me metabolised at 24 h, 0.19 mg/ml reported for H-HVDGSFSDEMNTILDNLAARDFINWLIQTKITD-OH [[Val2]hGLP-2(1-33)]
Key: 13%

* * *

tgt: DPP-IV (Homo sapiens)
protocol-summary: Assay for resistance to dipeptidyl peptidase IV (RP-HPLC of cleavage product)
condition-parameters: human, isolated human placental DPP-IV (dipeptidyl peptidase IV), pH 7.4, % Cleaved by DPP-IV, as Example 3: human placental DPP-IV, 37° C., PBS pH 7.4
No end group written: not given here.
Attribute: metabolised at 24 h, 0.19 mg/ml
Use % as the unit, but write only the number.

Use the examples below as a reference point.
H-HGDASFSDEMNTILDNLAARDFINWLIQTKITD-OH [[Gly2,Ala4]hGLP-2(1-33)] ... 0
HSQGSFSDEMNTILDNLAARDFINWLIQTKITD [[Ser2,Gln3]hGLP-2(1-33)] ... 0
H-HFDGSFSDEMNTILDNLAARDFINWLIQTKITD-OH [[Phe2]hGLP-2(1-33)] ... 0
H-HADASFSDEMNTILDNLATRDFINWLIQTKITD-OH [[Ala4]ratGLP-2(1-33)] ... 72

Turning to the following substance.
Exercise: Identify metabolised at 24 h, 0.19 mg/ml associated with the substance H-HGDGSFSDEMNTILDNLATRDFINWLIQTKITD-OH [[Gly2]ratGLP-2(1-33)]
Key: 0

* * *

tgt: DPP-IV (Homo sapiens)
protocol-summary: Assay for resistance to dipeptidyl peptidase IV (RP-HPLC of cleavage product)
condition-parameters: human, isolated human placental DPP-IV (dipeptidyl peptidase IV), pH 7.4, % Cleaved by DPP-IV, as Example 3: human placental DPP-IV, 37° C., PBS pH 7.4
Documented metabolised at 24 h, 0.19 mg/ml across a set of substances
State the result as a value with its unit after it.

H-HGAGSFSDEMNTILDNLAARDFINWLIQTKITD-OH [[Gly2,Ala3]hGLP-2(1-33)] ... 0%
H-HNDGSFSDEMNTILDNLAARDFINWLIQTKITD-OH [[Asn2]hGLP-2(1-33)] ... 0%
H-HAPGSFSDEMNTILDNLAARDFINWLIQTKITD-OH [[Pro3]hGLP-2(1-33)] ... 0%

Next substance, metabolised at 24 h, 0.19 mg/ml to be filled in.
Exercise: Quick one: give measured metabolised at 24 h, 0.19 mg/ml for H-HADGSFSDEMNTILDNLAARDFINFLIQTKITD-OH [[Phe25]hGLP-2(1-33)]
Key: 54%
